test_details: Solubility of Amlexanox in solvents and at different pH
Type: physicochemical
test_context: aqueous buffer; pH 3.0
assay_readout: solubility (µg/mL)
Respond with the bare value in µg/mL.

Task: Need solubility, item "CC(C)c1ccc2oc3nc(N)c(C(=O)O)cc3c(=O)c2c1"
Result: 12

====

test_details: Solubility of Amlexanox in solvents and at different pH
Format: physicochemical
test_context: pH 5.96, aqueous buffer
Protocol: To illustrate the many aspects of the present invention, it is provided herein several Examples of formulations which comprise a specific not-very-soluble drug known as Amlexanox or 2-amino-7-(1-methylethyl)-5-oxo-5H-[1]benzopyrano-[2,3-b]-pyridine-3-carboxylic acid. Amlexanox is not very soluble in lower alkyl alcohols (0.58 mg/mL, in dehydrated ethanol) or water (0.005 mg/mL). However, solubility of Amlexanox increases with pH. […]
assay_readout: solubility
Lab note: write values as number then unit, every time.

Task: Need solubility, item "CC(C)c1ccc2oc3nc(N)c(C(=O)O)cc3c(=O)c2c1"
Result: 15.3 mg/mL

Where do the numbers come from? From patent US6432415B1.
